# Tested on: HOP-62 NSCLC
# Assay Explanation: NCI-60 one-dose screen, 48 h (100 = growth as untreated, 0 = no growth, -100 = all killed)
# Assay Setup: 10 µM unless noted
# Protocol: Growth inhibition of the HOP-62 human Non-Small Cell Lung tumor cell line is measured as a screen for anti-cancer activity. Cells are grown in 96 well plates and exposed to the test compound for 48 hours. Compounds are tested at a single concentration, which is 10^-5 M for most compounds. The reported endpoint is percent growth (GI% or GIPRCNT), where numbers from 0 - 100% represent growth inhibition, and numbers from -100% - 0 represent cell death. […]
The panel holds about 83,000 compounds, 20% with a hit somewhere; the sample as a whole holds those more often.
Categories are assigned from the measured growth using these intervals: band 1: < 30%; band 2: ≥ 30% and < 70%; band 3: ≥ 70%

- Molecule: "COc1ccc2c(c1)CCCN2c1c2ccccc2nc2ccccc12"
  Answer Label: "band 2"

Into which category would you place `COc1ccc(NC(=O)CSc2nnc(-c3cc(-c4ccc(S(N)(=O)=O)cc4)nc4ccccc34)n2-c2ccccc2)cc1` ?
band 3

Into which category would you place `COC(=O)[C@H](CSC)N(C)C(=O)[C@@H]1CSSC[C@@H](NC(=O)c2nc3ccccc3cc2O)C(=O)NCC(=O)N1C` ?
band 3

Source: PubChem BioAssay (NCI)
